Cited source for all entries: patent EP4818187A1

Tested on: human ovarian cancer SK-OV-3
Assay: Biological Example 5: in vivo xenograft model of human ovarian cancer SK-OV-3
Parameters: species or system Balb/c-nu nude mice
Conditions: SK-OV-3 xenograft, nude mice, 0.8 mg/kg i.v. qw×3
// Maximum body weight change (%) lookup, one value per entry

CC[C@H](C)[C@@H]([C@@H](CC(=O)N1CCC[C@H]1[C@H](OC)[C@@H](C)C(=O)N[C@H](C)[C@@H](O)c1ccccc1)OC)N(C)C(=O)[C@@H](NC(=O)[C@H](C(C)C)[N+](C)(CC)Cc1ccc(O[C@@H]2O[C@H](C(=O)[O-])[C@@H](O)[C@H](O)[C@H]2O)cc1OCc1cn(CCCCCC(=O)Nc2ccc(-c3ccc(/N=N/c4ccc5c(S(=O)(=O)[O-])cc(S(=O)(=O)[O-])c(N)c5c4O)c(C)c3)cc2C)nn1)C(C)C.[Na+].[Na+] (stereo partly shown); 4.4, d21%

Return reported Maximum body weight change (%). Input molecule: CC[C@H](C)[C@@H]([C@@H](CC(=O)N1CCC[C@H]1[C@H](OC)[C@@H](C)C(=O)N[C@H](C)[C@@H](O)c1ccccc1)OC)N(C)C(=O)[C@@H](NC(=O)[C@H](C(C)C)[N+](C)(C)Cc1ccc(O[C@@H]2O[C@H](C(=O)[O-])[C@@H](O)[C@H](O)[C@H]2O)cc1OCc1cn(CCCOCC(=O)Nc2ccc(-c3ccc(/N=N/c4ccc5c(S(=O)(=O)[O-])cc(S(=O)(=O)[O-])c(N)c5c4O)c(C)c3)cc2C)nn1)C(C)C.[Na+].[Na+]
4.4, d18%

Return reported Maximum body weight change (%). Input molecule: CC[C@H](C)[C@@H]([C@@H](CC(=O)N1CCC[C@H]1[C@H](OC)[C@@H](C)C(=O)N[C@H](C)[C@@H](O)c1ccccc1)OC)N(C)C(=O)[C@@H](NC(=O)[C@H](C(C)C)[N+](C)(C)Cc1ccc(O[C@@H]2O[C@H](C(=O)[O-])[C@@H](O)[C@H](O)[C@H]2O)cc1OCc1cn(CCOCCC(=O)Nc2ccc(-c3ccc(/N=N/c4ccc5c(S(=O)(=O)[O-])cc(S(=O)(=O)[O-])c(N)c5c4O)c(C)c3)cc2C)nn1)C(C)C.[Na+].[Na+]
5.3, d21%

Return reported Maximum body weight change (%). Input molecule: CC[C@H](C)[C@@H]([C@@H](CC(=O)N1CCC[C@H]1[C@H](OC)[C@@H](C)C(=O)N[C@H](C)[C@@H](O)c1ccccc1)OC)N(C)C(=O)[C@@H](NC(=O)[C@H](C(C)C)[N+](C)(CC)Cc1ccc(O[C@@H]2O[C@H](C(=O)[O-])[C@@H](O)[C@H](O)[C@H]2O)cc1OCc1cn(CCOCCC(=O)Nc2ccc(-c3ccc(/N=N/c4ccc5c(S(=O)(=O)[O-])cc(S(=O)(=O)[O-])c(N)c5c4O)c(C)c3)cc2C)nn1)C(C)C.[Na+].[Na+] (stereo partly shown)
4.6, d21%
